# tested-on: UniProt:P21554
# test-method-notes: CB1 radioligand binding assay
# Parameters: species or system human
# measurement-context: read-out: Ki (CB1)
attribute-measured: pKi
// pKi here means minus log10 of the molar concentration (mol/L)

Illustrative cases are given below, each with its answer.
[
  {
    "compound": "NC(=S)NN/C(=N/S(=O)(=O)c1ccc(C(F)(F)F)cc1)N1CCC(c2ccccc2)C(c2ccc(Cl)cc2)=N1 (stereo not drawn)",
    "tested-on": "UniProt:P21554",
    "pKi": 6.24
  },
  {
    "compound": "CC(=O)N/C(N)=N\\C(=N\\S(=O)(=O)c1ccc(C(F)(F)F)cc1)N1CCC(c2ccccc2)C(c2ccc(Cl)cc2)=N1 (stereo not drawn)",
    "tested-on": "UniProt:P21554",
    "pKi": 8.30
  },
  {
    "compound": "N/C(=N\\C(=N\\S(=O)(=O)c1ccc(C(F)(F)F)cc1)N1CCC(c2ccccc2)C(c2ccc(Cl)cc2)=N1)c1ccc(F)cc1 (stereo not drawn) [Compound 10u]",
    "tested-on": "UniProt:P21554",
    "pKi": 7.56
  },
  {
    "compound": "CS/C(N)=N\\C(=N\\S(=O)(=O)c1cccc(C(F)(F)F)c1)N1CCC(c2ccccc2)C(c2ccc(Cl)cc2)=N1 (stereo not drawn) [Compound 11c]",
    "tested-on": "UniProt:P21554",
    "pKi": 6.63
  },
  {
    "compound": "COC(=O)C(N/C(=N/S(=O)(=O)c1ccc(C(F)(F)F)cc1)N1CCC(c2ccccc2)C(c2ccc(Cl)cc2)=N1)C(C)C (single isomer, unassigned) [Compound 34a]",
    "tested-on": "UniProt:P21554",
    "pKi": 7.33
  },
  {
    "compound": "CC(C)(C)/C(N)=N/C(=N/S(=O)(=O)c1ccc(C(F)(F)F)cc1)N1CCC(c2ccccc2)C(c2ccc(Cl)cc2)=N1 (single isomer, unassigned) [Compound 10oE1]",
    "tested-on": "UniProt:P21554",
    "pKi": 6.45
  },
  {
    "compound": "CC(C)C(N/C(=N/S(=O)(=O)c1ccc(Cl)cc1)N1CCC(c2ccccc2)C(c2ccc(Cl)cc2)=N1)C(N)=O (single isomer, unassigned) [Compound 30a]",
    "tested-on": "UniProt:P21554",
    "pKi": 6.04
  },
  {
    "compound": "O=S(=O)(/N=C(\\NC12CC3CC(CC(C3)C1)C2)N1CCC(c2ccccc2)C(c2ccc(Cl)cc2)=N1)c1ccc(C(F)(F)F)cc1 (stereo not drawn)",
    "tested-on": "UniProt:P21554",
    "pKi": 7.09
  }
]

The reported pKi of the compound N/C(=N\C(=N\S(=O)(=O)c1ccc(C(F)(F)F)cc1)N1CCC(c2ccccc2)C(c2ccc(Br)cc2)=N1)c1ccccc1F (stereo not drawn) [Compound 10z] was 8.08

The reported pKi of the compound N/C(=N\C(=N\S(=O)(=O)c1ccc(C(F)(F)F)cc1)N1CCC(c2ccccc2)C(c2ccc(Br)cc2)=N1)c1ccc(F)cc1F (stereo not drawn) [Compound 10za] was 8.04

The reported pKi of the compound NC(=O)CN/C(=N/S(=O)(=O)c1ccc(Cl)cc1)N1CCC(c2ccccc2)C(c2ccc(Cl)cc2)=N1 (stereo not drawn) was 7.39

The reported pKi of the compound COc1ccc(S(=O)(=O)/N=C(/N=C(\C)N)N2CCC(c3ccccc3)C(c3ccc(Cl)cc3)=N2)cc1 (stereo not drawn) [Compound 10h] was 6.98

FYI, the data here is from patent US20250197359A1.
